System: SNB-75
Test: NCI tumour cell line growth inhibition, 48 h
Activity calls are given as the source filed them. Cut-off read from the data, not from the text of the source: active = GI50 up to about 1.1 µM and inactive = higher.
propertyLabel: GI50

Here is how some compounds turned out for GI50.
>  <compound>
COc1cc2ccc3c4c(OC)cc(OC)c(OC)c4c([O-])[n+](C)c3c2cc1OC

>  <GI50>
11.8 µM (inactive)

$$$$
>  <compound>
NC1CNC(=O)c2c(Cl)sc(Cl)c21 (stereo not given)

>  <GI50>
> 100 µM (inactive)

$$$$
>  <compound>
CCOC(=O)N1CCc2cc(OC)c(OC)cc2/C1=C\c1ccc(OC)c(OC)c1

>  <GI50>
27 µM (inactive)

$$$$
>  <compound>
COc1cc(C(C)c2cc3c(cc2OCCCCOc2cc4c(cc2C(C)c2cc(OC)c(OC)c(OC)c2)OCO4)OCO3)cc(OC)c1OC (stereo not given)

>  <GI50>
24.8 µM (inactive)

$$$$
>  <compound>
O=C(OCCN=c1c2ccccc2ccc2ccccc12)c1cc([N+](=O)[O-])cc([N+](=O)[O-])c1

>  <GI50>
> 100 µM (inactive)

$$$$
>  <compound>
CC1=NN(C(=O)Cc2ccccc2)C(=O)/C1=C\C=C\c1ccccc1

>  <GI50>
> 100 µM (inactive)

$$$$

QUERY: Bench note: what GI50 did `N=C1N(c2ccccc2)C(=S)/C(=N/c2ccccc2)N1c1ccccc1` show?
RESULT: 15.9 µM (inactive)

QUERY: Could you tell me which GI50 is on file for COC1=CC(=O)C(C2(OC(C)C)OC(=O)C(Cl)=C2Cl)=CC1=O (stereo not given) ?
RESULT: > 100 µM (inactive)

QUERY: Using the record for `CCCCCCCCSC1=C(Cl)C(=O)C(OC)=C(OC)C1=O` , report its GI50.
RESULT: 19.1 µM (inactive)

QUERY: // returns reported GI50 for input `O=C(/C=C/c1ccccc1O)c1cccs1`
RESULT: > 100 µM (inactive)
